# Experimental system: GhWRKY91 (Gossypium hirsutum (CCRI10), UniProt A0A068LD65 1-273)
# Sequence (A0A068LD65 entry or part of it): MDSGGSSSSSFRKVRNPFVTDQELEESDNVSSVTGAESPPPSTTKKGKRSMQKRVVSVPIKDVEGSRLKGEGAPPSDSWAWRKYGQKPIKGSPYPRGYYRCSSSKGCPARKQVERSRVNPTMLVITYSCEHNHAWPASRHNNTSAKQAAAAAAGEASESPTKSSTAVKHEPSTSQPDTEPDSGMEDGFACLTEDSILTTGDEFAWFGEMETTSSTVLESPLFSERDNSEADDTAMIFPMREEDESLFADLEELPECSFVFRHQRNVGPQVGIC
# Protocol: EMSA; LightShift Chemiluminescent EMSA Kit (Thermo Scientific); buffer, salt, pH and temperature not stated
# Experimental conditions: protein: recombinant; tags: N-terminal GST, removed by digestion after purification; label: biotin end label

{"columns": ["Binder", "binding result"],
 "data": [
  ["GhWRKY17 promoter W-box probe (dsDNA) DNA 1: AATTTCAAACGGCTAATCCCCACCTTTTGACCTTATCTCTTGTCAGTGACCCA DNA 2: TGGGTCACTGACAAGAGATAAGGTCAAAAGGTGGGGATTAGCCGTTTGAAATT", "binds"],
  ["GhWRKY68 promoter W-box probe (dsDNA) DNA 1: GCACTGTTCAATATCCGTACAAGTGGTTGACCTACAATTGCCCGTCGATCC DNA 2: GGATCGACGGGCAATTGTAGGTCAACCACTTGTACGGATATTGAACAGTGC", "no binding"],
  ["GhWRKY27a promoter W-box probe (dsDNA) DNA 1: GCGACTTGGTCAGCAATTGGAGTTTTGACCTTACCTCACTCTTCAGTCCAC DNA 2: GTGGACTGAAGAGTGAGGTAAGGTCAAAACTCCAATTGCTGACCAAGTCGC", "no binding"],
  ["GhAPX1 promoter W-box probe (dsDNA) DNA 1: TCCCCGACGTTCCGACAAGTTTTGACTATTTTATTTTCTTAAAATAAAAAGC DNA 2: GCTTTTTATTTTAAGAAAATAAAATAGTCAAAACTTGTCGGAACGTCGGGGA", "no binding"]
]}
